molecular target: Replicase polyprotein 1ab (Severe acute respiratory syndrome coronavirus 2, UniProt P0DTD1); assay: Inhibition of His6-tagged SARS-CoV-2 main protease expressed in Escherichia coli BL21 (DE3) using DABCYL-KTSAVLQ1SGFRKM-E(EDANS)-NH2 as substrate preincubated for 15 mins followed by substrate addition by FRET analysis
Exercise: for every item that follows, state its recorded pIC50.
pIC50 is a log-scale quantity: -log10 of the concentration expressed in molar.

Lookup: Determine its reported pIC50: O=C1OCCN1C(=O)C(Cc1ccccc1)Sc1nc2cc(Cl)ccc2n1Cc1ccccc1 (stereo not drawn)
Found: 4.57

Lookup: Determine its reported pIC50: Cc1ccc2c(c1)nc(SC(Cc1ccccc1)C(=O)N1CCNC1=O)n2Cc1ccccc1 (stereo not drawn)
Found: 4.49

Lookup: Determine its reported pIC50: COc1cc2c(cc1Cl)nc(SC(Cc1ccco1)C(=O)N1CCOC1=O)n2Cc1ccccc1 (stereo not drawn)
Found: 4.56

Lookup: Determine its reported pIC50: O=C1OCCN1C(=O)C(Cc1ccco1)Sc1nc2cc(Cl)ccc2n1Cc1ccccc1 (stereo not drawn)
Found: 4.83

Lookup: Determine its reported pIC50: O=C1OCCN1C(=O)C(Cc1ccco1)Sc1nc2cc(Cl)c(O)cc2n1Cc1ccccc1 (stereo not drawn)
Found: 4.34

Lookup: Determine its reported pIC50: O=C(CSc1nc2cc(Cl)ccc2n1Cc1ccccc1)N1CCOC1=O
Found: 4.21

Lookup: Determine its reported pIC50: O=C1OCCN1C(=O)C(Cc1ccco1)Sc1nc2ccc(O)cc2n1Cc1ccccc1 (stereo not drawn)
Found: 4.25

Lookup: Determine its reported pIC50: O=C(CSc1nc2cc(Cl)ccc2n1Cc1ccccc1)N1CCNC1=O
Found: 4.62

Lookup: Determine its reported pIC50: CC(C)(C)c1ccc2c(c1)nc(SC(Cc1ccccc1)C(=O)N1CCOC1=O)n2Cc1ccccc1 (stereo not drawn)
Found: 4.53

Lookup: Determine its reported pIC50: O=C1NCCN1C(=O)C(Cc1ccccc1)Sc1nc2cc(Cl)ccc2n1Cc1ccccc1 (stereo not drawn)
Found: 4.52

Lookup: Determine its reported pIC50: COc1ccc2nc(SC(Cc3ccco3)C(=O)N3CCOC3=O)n(Cc3ccccc3)c2c1 (stereo not drawn)
Found: 4.27

Lookup: Determine its reported pIC50: O=C1OCCN1C(=O)C(Cc1ccco1)Sc1nc2cc(Cl)c(Cl)cc2n1Cc1ccccc1 (stereo not drawn)
Found: 4.51

Lookup: Determine its reported pIC50: CC(C)(C)c1ccc2c(c1)nc(SCC(=O)N1CCOC1=O)n2Cc1ccccc1
Found: 4.45

Lookup: Determine its reported pIC50: Cc1ccc2c(c1)nc(SC(Cc1ccccc1)C(=O)N1CCOC1=O)n2Cc1ccccc1 (stereo not drawn)
Found: 4.44

Lookup: Determine its reported pIC50: COc1cc2c(cc1Cl)nc(SCC(=O)N1CCOC1=O)n2Cc1ccccc1
Found: 4.28

Lookup: Determine its reported pIC50: O=C(CSc1nc2cc(Cl)c(Cl)cc2n1Cc1ccccc1)N1CCOC1=O
Found: 4.53

Lookup: Determine its reported pIC50: O=C(CSc1nc2cc(Cl)c(O)cc2n1Cc1ccccc1)N1CCOC1=O
Found: 4.45

Lookup: Determine its reported pIC50: O=C1OCCN1C(=O)C(Cc1ccco1)Sc1nc2ccc(Cl)cc2n1Cc1ccccc1 (stereo not drawn)
Found: 4.28

====

molecular target: Replicase polyprotein 1ab (Severe acute respiratory syndrome coronavirus 2, UniProt P0DTD1); test: Inhibition of His6-tagged SARS-CoV-2 main protease expressed in Escherichia coli BL21 (DE3) using DABCYL-KTSAVLQ1SGFRKM-E(EDANS)-NH2 as substrate preincubated for 15 mins followed by substrate addition in presence of Triton-X by FRET analysis
Exercise: for every item that follows, state its recorded pIC50.
pIC50 is a log-scale quantity: -log10 of the concentration expressed in molar.

Lookup: Determine its reported pIC50: COCCn1c(C(=O)NCC(O)c2ccccc2)nc2ccccc2c1=O (configuration not stated)
Found: 4.27

Lookup: Determine its reported pIC50: O=C(CSc1nc2cc(Cl)ccc2n1Cc1ccccc1)N1CCNC1=O
Found: 4.62
